# GI50 per entry
Tested on: U-251
Test: NCI tumour cell line growth inhibition, 48 h
Activity calls are given as the source filed them. Cut-off read from the data, not from the text of the source: active = GI50 up to about 1.1 µM and inactive = higher.

Study these solved cases before continuing.
compound | GI50
COc1cccc(N2C(=O)CSC2c2c[nH]c3ccccc23)c1 (stereo not drawn) | > 100 µM (inactive)
Cc1ccc(Cc2nn(C)c(=O)n2-n2cccc2)cc1 | > 100 µM (inactive)

I am curious: what GI50 value has been reported for O=C1C=CC(O)(C#CCO)C=C1 ?
11.6 µM (inactive)

Try COCCOCCOCCOc1cccc2c1C(=O)c1cccc(OCCOCCOCCOC)c1C2=O next.
> 100 µM (inactive)

CCOC(=O)CCC(C(=O)OCC)n1nnc2ccc(Nc3c(C)[n+]([O-])c4ccc(Cl)cc4[n+]3[O-])cc21 (stereo not drawn) ?
46.3 µM (inactive)

Likewise for COC12CC(O)=C(C(C)=O)C(=O)C1(C)c1c(OC(C)=O)c(C)c(O)c(C(C)=O)c1O2 (stereo not drawn) ?
9.25 µM (inactive)

And then CN1N=C(c2ccncc2)OC1c1cccc(F)c1 (stereo not drawn) , what is it?
> 100 µM (inactive)

Follow-up entry: COc1cccc2c1C(=O)c1c(O)c3c(c(O)c1C2=O)CC(O)(C(C)=O)CC3O (stereo not drawn)
4.03 µM (inactive)

Then what about the compound O=C1NC(=O)C(C(CC(=O)c2ccc(Cl)cc2)c2ccc(Cl)cc2)C(=O)N1 (stereo not drawn) ?
> 100 µM (inactive)

Could you do the same for C=C1C(=O)OC2/C=C(/C)C3(O)OC(C)(CC(OC(=O)C(C)C)C12)CC3OC(C)=O (stereo not drawn) , please?
8 µM (inactive)

Same question for CCCCCCCCCCCC(=O)OCC(O)CO (stereo not drawn) [GLYCEROL MONOLAURATE] please.
71.3 µM (inactive)

---

Measured GI50, listed per entry for reference.
Tested on: LOX IMVI
Assay: NCI tumour cell line growth inhibition, 48 h
Active and inactive are the calls of the source. Rule as the data show it: active = GI50 up to about 1.1 µM and inactive = higher.

Known results for compounds:
compound | GI50
O=C(CC(=O)N1N=C(N2CCCCC2)CC1c1ccccc1)Nc1ccc(Cl)cc1 (stereo not drawn) | > 100 µM (inactive)
C=CCOC1=C(OC(C)=O)C(C2COC(C)(C)O2)OC1=O (stereo not drawn) | 11.7 µM (inactive)

# query: GI50 of entry CCCCCCCCSC1=C(Cl)C(=O)C(OC)=C(OC)C1=O
4.57 µM (inactive)

---

Test system: OVCAR-8
Assay: NCI tumour cell line growth inhibition, 48 h
Active and inactive are the calls of the source. Rule as the data show it: active = GI50 up to about 1.1 µM and inactive = higher.
measured.metric: GI50

compound | experimental.target | GI50
CN(C)CC(CC1=C(CC(CN(C)C)N(C)C)CCC1)N(C)C (stereo unspecified) | OVCAR-8 | > 100 µM (inactive)
NNC(=O)c1ccc(OCc2nc3ccccc3[nH]2)cc1 | OVCAR-8 | > 100 µM (inactive)
Cn1cc(-c2ccc3c4ccccc4n(C)c3c2)c2ccccc21 | OVCAR-8 | > 100 µM (inactive)
CCOc1ccc(NC(=O)/C(=C\c2ccc(C)cc2)C(C)=O)cc1 | OVCAR-8 | > 100 µM (inactive)
Cc1nn(-c2ccccc2)c(C)c1/C=N/NC(=O)c1sc(=S)n(-c2ccccc2)c1N | OVCAR-8 | 4.69 µM (inactive)

Look at this compound and give its reported GI50. COc1cc2c(c(O)c1OC)-c1c(cc(OC)c(OC)c1OC)CC(C)C(C)C2 (stereo unspecified) [GOMISIN K3]
51.9 µM (inactive)

# repeat for CNC(C)Cc1ccc(O)cc1 (stereo unspecified)
> 100 µM (inactive)

// repeat for COc1cc2c(cc1OC)CC1c3cc(OC)c(OC)cc3CCN1CC2 (stereo unspecified) and report
95.5 µM (inactive)

Also, C=CCOC1=C(OC(C)=O)C(C2COC(C)(C)O2)OC1=O (stereo unspecified) please.
38.8 µM (inactive)
